Documented Rat Liver COMT activity (% control) across a set of compounds
Measured Target: rat liver COMT (Rattus norvegicus, UniProt P22734)
Construct: the organs were immediately removed and homogenised in 5 mM phosphate buffer of pH 7.8; from tissue; host or cells: rat liver homogenate (Wistar rats, dosed orally; ex vivo activity)
Sequence (P22734 whole entry): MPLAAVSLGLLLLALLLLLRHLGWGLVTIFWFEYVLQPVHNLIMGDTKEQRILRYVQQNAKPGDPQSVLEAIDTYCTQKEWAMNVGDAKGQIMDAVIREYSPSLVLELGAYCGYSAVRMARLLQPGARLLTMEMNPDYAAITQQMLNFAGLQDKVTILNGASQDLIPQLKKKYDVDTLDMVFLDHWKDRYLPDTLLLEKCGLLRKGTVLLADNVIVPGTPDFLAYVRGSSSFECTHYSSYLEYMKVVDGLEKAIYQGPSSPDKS
Assay Method Text: Rat liver COMT activity after oral administration of test compounds
Type: in vivo
Run Conditions: 3 mg/kg oral, 3 h after administration
Entry rule: numbers only, all in % control.

Asked: Value lookup for Rat Liver COMT activity (% control); key = O=[N+]([O-])c1cc(-c2nc(Cc3ccc(C(F)(F)F)[n+]([O-])c3)no2)cc(O)c1O
Given back: 30.6

Asked: Now this one: O=[N+]([O-])c1cc(-c2nc(-c3c[n+]([O-])ccc3C(F)(F)F)no2)cc(O)c1O
Given back: 19.9

Asked: Now this one: Cc1cc(C(F)(F)F)c(-c2noc(-c3cc(O)c(O)c([N+](=O)[O-])c3)n2)c[n+]1[O-]
Given back: 34.8

Asked: Now this one: Cc1c(C)c(C)[n+]([O-])c(Cl)c1-c1noc(-c2cc(O)c(O)c([N+](=O)[O-])c2)n1
Given back: 9.3

Asked: Now this one: Cc1c(Cl)c(C)[n+]([O-])c(Br)c1-c1noc(-c2cc(O)c(O)c([N+](=O)[O-])c2)n1
Given back: 4.0

Asked: Now this one: Cc1ccc(C(=O)c2cc(O)c(O)c([N+](=O)[O-])c2)cc1 [Tolcapone, reference compound]
Given back: 28.6

Asked: Now this one: O=[N+]([O-])c1cc(-c2nc(-c3ccc[n+]([O-])c3C(F)(F)F)no2)cc(O)c1O
Given back: 6.1

Please examine the following record next.
Asked: Value lookup for Rat Liver COMT activity (% control); key = Cc1c(-c2noc(-c3cc(O)c(O)c([N+](=O)[O-])c3)n2)ccc(C(F)(F)F)[n+]1[O-]
Given back: 18.5

Recorded values, source patent US20200102295A1.
